# subjectOfTest: T1, 4H754-bH
# T1 chain: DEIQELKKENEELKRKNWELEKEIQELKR
# test: two-hybrid library CCNG1;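 also: natural log of median RNA to DNA barcode read ratio; higher means stronger binding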
assayReadout: interaction score

Solved entries (count: 6):
| binder | interaction score |
| --- | --- |
| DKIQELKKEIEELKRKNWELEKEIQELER [4H2673-bH] | -1.99 |
| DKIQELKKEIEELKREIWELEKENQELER [4H2627-bH] | -1.94 |
| DEIQELKKEIEELERKNWELKKKNQELER [4H575-bH] | -0.631 |
| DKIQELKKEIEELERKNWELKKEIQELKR [4H2618-bH] | -0.696 |
| DEIQELEKEIEELKREIWELEKKNQELKR [4H72-bH] | -0.378 |
| DKNQELKKENEELKREIWELEKKIQELKR [4H3782-bH] | 0.775 |

1. DEIQELEKKNEELKREIWELKKEIQELER [4H457-bH]
2. DEIQELKKENEELERKIWELKKENQELER [4H683-bH]
3. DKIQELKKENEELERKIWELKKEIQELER [4H2729-bH]
4. DKNQELKKKNEELKRKIWELKKEIQELER [4H4073-bH]
5. DEIQELEKKIEELKRENWELKKEIQELKR [4H346-bH]
Task item: # rank by interaction score, ascending (min first) Note for the reader: the ranking is given by listing the labels in the order requested.
Reply: 4, 1, 2, 5, 3

A. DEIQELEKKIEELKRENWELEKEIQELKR [4H338-bH]
B. DEIQQLEQKIQELKQENQELKWENQELKQ [4H348-bN]
C. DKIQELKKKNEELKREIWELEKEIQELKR [4H3010-bH]
Task item: # rank by interaction score, ascending (min first) Note for the reader: the ranking is given by listing the labels in the order requested.
Reply: C, B, A
(C: -1.06, B: -0.689, A: 0.366)

1. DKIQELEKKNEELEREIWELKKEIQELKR [4H2442-bH]
2. DEIQELKKEIEELKRENWELKKKNQELER [4H607-bH]
Task item: From the recorded data, which exceeds the other in interaction score: 1 or 2 ? // respond with label for picked entry
Reply: 2
